- tested target: SAPK4 (Homo sapiens)
- Construct: purchased Upstate (Charlottesville, Va.)
- Sequence (O15264 whole entry, species assumed): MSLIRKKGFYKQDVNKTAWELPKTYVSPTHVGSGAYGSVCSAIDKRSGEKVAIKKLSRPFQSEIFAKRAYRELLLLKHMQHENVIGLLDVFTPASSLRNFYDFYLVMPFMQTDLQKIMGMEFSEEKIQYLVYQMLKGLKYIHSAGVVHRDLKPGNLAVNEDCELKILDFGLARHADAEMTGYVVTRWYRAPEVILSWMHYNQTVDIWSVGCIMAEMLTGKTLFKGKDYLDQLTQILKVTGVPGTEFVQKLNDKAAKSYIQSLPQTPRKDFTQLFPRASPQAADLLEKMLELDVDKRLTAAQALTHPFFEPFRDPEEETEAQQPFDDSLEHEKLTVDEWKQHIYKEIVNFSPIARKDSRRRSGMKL
- test details: Broad selectivity panel, 32P incorporation
- Format: biochemical
- condition info: 1 μM compound, 40 μM ATP; read-out: Percent inhibition SAPK4
measured parameter: inhibition at 1 µM (%)
Please state the figure in %; there is no need to write the unit.

What does the record list as inhibition at 1 µM for Fc1ccc(-c2nc3occn3c2-c2ccnc(N[C@@H]3CN4CCC3CC4)n2)cc1 ?
3

Param item = CN(C)CC(C)(C)CNc1nccc(-c2c(-c3ccc(F)cc3)nc3occn23)n1 ; retrieve measured inhibition at 1 µM.
-4

====

- tested target: MAPK1 (Homo sapiens, UniProt P27361)
- Construct: purchased Upstate (Charlottesville, Va.)
- Sequence (P27361 whole entry): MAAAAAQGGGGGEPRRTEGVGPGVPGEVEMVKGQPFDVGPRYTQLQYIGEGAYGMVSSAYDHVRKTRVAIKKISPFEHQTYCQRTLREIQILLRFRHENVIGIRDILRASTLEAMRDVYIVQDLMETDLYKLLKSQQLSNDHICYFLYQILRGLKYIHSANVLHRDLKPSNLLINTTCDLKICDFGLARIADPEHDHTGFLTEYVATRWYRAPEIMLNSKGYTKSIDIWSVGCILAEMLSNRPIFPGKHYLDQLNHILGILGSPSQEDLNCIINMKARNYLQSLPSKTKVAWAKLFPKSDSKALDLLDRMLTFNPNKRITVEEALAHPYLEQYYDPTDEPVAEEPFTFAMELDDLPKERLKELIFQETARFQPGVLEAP
- test details: Broad selectivity panel, 32P incorporation
- Format: biochemical
- condition info: 0.1 μM compound, 40 μM ATP; read-out: Percent inhibition MAPK1
Mark label 0 for inhibition at 0.1 µM values under 20%, and label 1 for everything at or above.

compound="CS(=O)(=O)N1CCC(Nc2nccc(-c3c(-c4ccc(F)cc4)nc4occn34)n2)CC1 [CCLXXIX]" tested_target="MAPK1 (Homo sapiens, UniProt P27361)" qualitative_label="label 1"
compound="CN(C)CC(C)(C)CNc1nccc(-c2c(-c3ccc(F)cc3)nc3occn23)n1 [CXIX]" tested_target="MAPK1 (Homo sapiens, UniProt P27361)" qualitative_label="label 0"
compound="Fc1ccc(-c2nc3occn3c2-c2ccnc(N[C@@H]3CN4CCC3CC4)n2)cc1 [LXXI]" tested_target="MAPK1 (Homo sapiens, UniProt P27361)" qualitative_label="label 1"
compound="Fc1ccc(-c2nc3occn3c2-c2ccnc(N[C@H]3CN4CCC3CC4)n2)cc1 [LXXXVII]" tested_target="MAPK1 (Homo sapiens, UniProt P27361)" qualitative_label="label 0"
compound="CC(=O)N1CCC(Nc2nccc(-c3c(-c4ccc(F)cc4)nc4occn34)n2)CC1 [CCLXXVIII]" tested_target="MAPK1 (Homo sapiens, UniProt P27361)" qualitative_label="label 1"

Here is another compound to look at.
Please indicate if the recorded inhibition at 0.1 µM for CN1[C@@H]2CC[C@H]1C[C@@H](Nc1nccc(-c3c(-c4ccc(F)cc4)nc4occn34)n1)C2 [CCLXXXI] meets or exceeds 20%.
label 1
